This collection of values is drawn from PubChem BioAssay (NCATS).

procedure text: qHTS for inhibitors of ER calcium dysfunction: SERCaMP assay screened against the NCATS CANVASS Library (AID 1347393); further: nearly all actives have a fitted effect of over 40% in size
test context: SH-SY5Y GLuc-SERCaMP (Gaussia luciferase released on ER calcium loss) secretion, thapsigargin, luminescence; series mostly up to 76.6 µM
Results filed as inconclusive are left out. Activity calls are given as the source filed them. The call rests on the fitted dose curve; in most records, active means well fitted inhibition curve with a large enough effect; inconclusive means small, poorly fitted or top-dose-only effect; inactive means no such curve, though single readings can be large or run the other way.
Assign a class; possible classes are label 1 (active), label 0 (inactive)

{"columns": ["molecule", "group label"],
 "data": [
  ["CC(=O)N[C@H]1CCN2CCC[C@H]12", "label 0"],
  ["CC1=CC2CC[C@@H]3[C@@H](C)C[C@H](C)[C@@H](C1)N23 (some centres not stated)", "label 0"],
  ["CO[C@@H](/C=C/CC/C=C/C(=O)O)[C@@H](O)[C@H](C)/C=C(\\C)[C@@H](O)[C@H](C)C(=O)CCCC1CC(=O)NC(=O)C1", "label 0"],
  ["COc1ccc2c3c([nH]c2c1)C(C)=NCC3", "label 1"],
  ["CNCCc1ccc(O)cc1", "label 0"],
  ["CCC(=O)CCCCC[C@@H]1NC(=O)[C@H]2CCCCN2C(=O)[C@H]([C@@H](C)CC)NC(=O)[C@H](Cc2cn(OC)c3ccccc23)NC1=O", "label 0"],
  ["CNCCc1ccccc1", "label 0"],
  ["CCN1C[C@]2(C)CC[C@@H](O)[C@]34C1[C@H](C[C@H]23)C12CCC(CC14)[C@](O)(CO)[C@H]2O (some centres not stated)", "label 0"]
]}

Problem: Short answer needed: outcome of this test for CCN1C[C@]2(C)CC[C@H](O)[C@]34C1C(C[C@H]23)[C@@]12CC[C@H](CC14)[C@](O)(COC(=O)c1ccc(OC)c(OC)c1)[C@H]2O (some centres not stated) ?
Result: label 1

Problem: Per the assay record, what outcome was assigned to C[C@]12CC(O)C3[C@@H](CCC4C[C@@H](O)CC[C@@]43CO)[C@@]1(O)CCC2C1=CC(=O)OC1 (some centres not stated) ?
Result: label 0

Problem: Lab log entry: CCC[C@H]1CC[C@H]2[C@H](C)CCC[C@H]2N1 — outcome as called in the assay?
Result: label 0

Problem: Answer briefly: the call reported for O=C(c1ccccc1O)c1[nH]c(Cl)c(Cl)c1-n1c(C(=O)c2ccccc2O)cc(Cl)c1Cl in this assay.
Result: label 0

---

System: Dd2
procedure text: qHTS profiling for inhibitors of Plasmodium falciparum proliferation (AID 504749); further: nearly all actives have a fitted effect of over 60% in size
test context: P. falciparum in erythrocytes, SYBR Green DNA, 72 h; series mostly up to 28.7 µM
Records with an inconclusive call do not appear. Active and inactive are the calls of the source. The call rests on the fitted dose curve; in most records, active means well fitted inhibition curve with a large enough effect; inconclusive means small, poorly fitted or top-dose-only effect; inactive means flat fitted curve, though single readings scatter.
Log the outcome using a class from 1 (yes) = active, 0 (no) = inactive

Past entries and their recorded results:
{"columns": ["molecule", "measured on", "group label"],
 "data": [
  ["C[N+](C)(C)CC(=O)[O-]", "Dd2", "0 (no)"],
  ["Oc1cc[c]([Hg][Cl])cc1", "Dd2", "1 (yes)"],
  ["O=C(O)c1ccccc1-c1c2cc(Br)c(=O)cc-2oc2[c]([Hg])c(O)c(Br)cc12", "Dd2", "0 (no)"],
  ["CC(C)[C@@]1(NC(=O)[C@H]2CC3c4cccc5[nH]cc(c45)C[C@H]3N(C)C2)O[C@@]2(O)C3CCCN3C(=O)[C@@H](Cc3ccccc3)N2C1=O (stereo not given in full)", "Dd2", "1 (yes)"]
]}

// next entry
Problem: State the result this test recorded for CCCCCCCCCC[N+](C)(C)CCCCCCCCCC .
Result: 1 (yes)

---

procedure text: qHTS for differential inhibitors of proliferation of Plasmodium falciparum line W2 (AID 1883);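 further: parasites grown with compound for 72 h before lysis and staining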
test context: Plasmodium falciparum W2 proliferation inhibition; series mostly up to 28.7 µM
Results filed as inconclusive are left out. Activity calls are given as the source filed them. Calls come from the whole dose curve; as a rule, active = well fitted curve in the direction sought with a large enough effect; inconclusive = small, poorly fitted or top-dose-only effect, or another doubt; inactive = no such curve, though single readings can be large or run the other way.
Please answer using one outcome listed in TRUE (active), FALSE (inactive)

Use the examples below as a reference point.
{"columns": ["molecule", "group label"],
 "data": [
  ["CN1CCc2cc(O)cc3c2C1Cc1ccc(O)c(O)c1-3 (centres undefined)", "TRUE"],
  ["O=[N+]([O-])c1ccc(O[C@@H]2O[C@H](CO)[C@@H](O)[C@H](O)[C@H]2F)c([N+](=O)[O-])c1", "TRUE"],
  ["Oc1ccccc1O", "TRUE"]
]}

Problem: // outcome(item) with item = C[C@@H]1O[C@@H](O[C@H]2C[C@@H](O)[C@]3(CO)[C@@H]4C(CC[C@]3(O)C2)[C@@]2(O)CC[C@H](C3=CC(=O)OC3)[C@@]2(C)C[C@H]4O)[C@H](O)[C@H](O)[C@H]1O (some centres undefined)
Result: TRUE

Problem: Tell me the assay call for CC(O)C(C)OC(=O)[C@@H]1C[C@@H]2c3cccc4c3c(cn4C(C)C)C[C@H]2N(C)C1 (some centres undefined) please.
Result: TRUE

Problem: How was N[C@@H](Cn1cc(I)c(=O)[nH]c1=O)C(=O)O classified in this test?
Result: FALSE

Problem: What did the test return for CC(=O)[C@H]1CC[C@H]2[C@@H]3CCC4=CC(=O)CC[C@]4(C)[C@H]3CC[C@]12C ?
Result: TRUE

Problem: State the result this test recorded for N[C@H](CCCCCP(=O)(O)O)C(=O)O .
Result: FALSE

Problem: Query: recorded result category for N#C/C(=C\c1ccc(O)c(O)c1)C(=O)NCCCNC(=O)/C(C#N)=C/c1ccc(O)c(O)c1 in this test
Result: TRUE

---

Tested on: C33A
procedure text: Primary qHTS to identify gynecologic anti-cancer compounds using libraries of approved drugs and bioactive compounds (AID 1345084); further: nearly all actives have a fitted effect of over 55% in size; further: potency means the concentration at half of the fitted maximal effect
test context: Gynecologic cancer cell panel viability, ATPlite luminescence, 48 h; series mostly up to 57.5 µM
Records with an inconclusive call do not appear. Activity calls are given as the source filed them. Calls come from the whole dose curve; as a rule, active = well fitted cell-killing curve with a large enough effect; inconclusive = small, poorly fitted or top-dose-only effect, or effect the other way; inactive = flat fitted curve, though single readings scatter.
measured quantity: Potency

Field: example entries. Status: answers known.
{"columns": ["compound", "Potency"],
 "data": [
  ["COc1ccc2[nH]c(-c3ccccc3)c(CCN(C)C)c2c1", "inactive"],
  ["CN=C(NS(=O)(=O)c1ccc(Cl)cc1)N1C[C@H](c2ccccc2)C(c2ccc(Cl)cc2)=N1", "inactive"],
  ["CC(C)OC(=O)c1ccnc2cc(C(OCCN3CCCCC3)c3ccccc3Cl)sc12 (stereo not given)", "inactive"],
  ["C[C@H]1O[C@@H](O[C@H]2CC[C@]3(CO)C4CC[C@]5(C)[C@@H](C6=CC(=O)OC6)CC[C@]5(O)[C@@H]4CC[C@H]3C2)[C@H](O)[C@H](O)[C@@H]1O[C@@H]1O[C@H](CO)[C@@H](O)[C@H](O)[C@H]1O (stereo not given in full)", "1.12 µM (active)"],
  ["CCCCn1cc(C(=O)c2cccc3ccccc23)c2ccccc21", "inactive"],
  ["COc1ccc(CN(C(=O)[C@@H](N)Cc2c(C)cc(C(N)=O)cc2C)[C@@H](C)c2ncc(-c3ccccc3)[nH]2)cc1C(=O)O", "inactive"],
  ["C[C@]12CC[C@H](O)C[C@@H]1CC[C@@H]1[C@@H]2CC[C@]2(C)[C@@H](C3=CC(=O)OC3)CC[C@]12O", "7.94 µM (active)"],
  ["C[C@]12CC[C@H](O)C[C@@]1(O)CC[C@@H]1[C@@H]2CC[C@]2(C)[C@@H](c3ccc(=O)oc3)CC[C@]12O", "inactive"],
  ["CCCCCn1cc(C(=O)Cc2ccccc2OC)c2ccccc21", "inactive"],
  ["CCC1CC2CN3CCc4c([nH]c5ccccc45)C(C(=O)OC)(C2)C13 (stereo not given)", "inactive"]
]}

# per-item lookup of Potency; items listed below
1. CC(C)=CCC[C@]1(C)C=Cc2c(O)c3c(c(CC=C(C)C)c2O1)O[C@]12C(=C[C@@H]4CC1C(C)(C)O[C@@]2(C/C=C(/C)C(=O)O)C4=O)C3=O
2. CN1CCc2cc3c(cc2[C@H]1[C@@H]1OC(=O)c2c1ccc1c2OCO1)OCO3
3. C[C@@H]1O[C@@H](OC2CCC3(C=O)C(CCC4C3CCC3(C)C(C5=CC(=O)OC5)C(O)CC43O)C2)[C@H](O)[C@H](O)[C@H]1O[C@@H]1O[C@H](CO)[C@@H](O)[C@H](O)[C@H]1O (stereo not given in full)
4. CO[C@H]1[C@@H](O)[C@@H](C)O[C@@H](O[C@@H]2C=C3C(OC(C)=O)CC4(O)C(CC[C@]5(C)[C@@H](C6=CC(=O)OC6)CC[C@]45O)[C@@]3(C)CC2)[C@@H]1O (stereo not given in full)
5. Oc1ccc2c(c1)C13CCCC[C@H]1[C@@H](C2)N(CC1CCC1)CC3

Result:
["5.62 µM (active)", "inactive", "5.62 µM (active)", "0.178 µM (active)", "inactive"]

---

procedure text: qHTS drug screen for cell cycle checkpoint inhibitors in PARPi-resistant BRCA-mutant ovarian cancer cell lines. (AID 1963452)
test context: PEO1/OlaR viability, CellTiter-Glo luminescence, 96 h; measured here: PEO1 parental Z-AUC; stronger effect = lower value
Description: Women's Malignancies Branch, Center for Cancer Research (CCR), National Cancer Institute (NCI), National Institutes of Health (NIH), Bethesda, MD Poly (ADP-ribose) polymerase inhibitors (PARPis) have changed the treatment paradigm in breast cancer gene (BRCA) - mutant high-grade serous ovarian carcinoma (HGSC). […] 6; Detection; Luminescence, PHERAstar (BMG Labtech) plate reader. […] 6. Luminescence readings were taken using PHERAstar (BMG Labtech). […]
measured quantity: Z-AUC
Answers are plain numbers.

{"columns": ["smiles", "Z-AUC"],
 "data": [
  ["COc1cc(C(=O)N2CC[C@@H](O)[C@@H](N)C2)cc2nc(-c3cc4ccccc4n3CC3CC3)n(C)c12", 1.05],
  ["CN(C)c1cc2c(cc1Sc1nc3c(N)nccc3n1CCNCC(C)(C)C)OCO2", -1.43],
  ["C/C(=C\\c1csc(C)n1)[C@@H]1C[C@@H]2O[C@@H]2CCC[C@H](C)[C@H](O)[C@@H](C)C(=O)C(C)(C)[C@@H](O)CC(=O)O1", -2.45],
  ["CN[C@@H]1C[C@H]2O[C@@](C)([C@@H]1OC)n1c3ccccc3c3c4c(c5c6ccccc6n2c5c31)C(=O)NC4", -2.26]
]}

Please give Z-AUC, item by item, for the list that follows.
1. Cc1ncc(OC[C@@]2(c3cccc(F)c3)C[C@H]2C(=O)Nc2ccc(F)cn2)c(C)n1
2. C[C@@H]1CN(Cc2ccc(F)cc2)CCN1C(=O)COc1ccc(Cl)cc1NC(N)=O

Result:
-0.55
-1.28
